Values compiled from patent US12612424B2.

target: HPK1 (Homo sapiens, UniProt Q92918); assay: HPK1 biochemical assay (ADP-GLO Kinase Assay); conditions: B*: testing performed in a first testing facility; read-out: HPK1 IC50 (nM) Relative, B*
Sequence (Q92918 whole entry): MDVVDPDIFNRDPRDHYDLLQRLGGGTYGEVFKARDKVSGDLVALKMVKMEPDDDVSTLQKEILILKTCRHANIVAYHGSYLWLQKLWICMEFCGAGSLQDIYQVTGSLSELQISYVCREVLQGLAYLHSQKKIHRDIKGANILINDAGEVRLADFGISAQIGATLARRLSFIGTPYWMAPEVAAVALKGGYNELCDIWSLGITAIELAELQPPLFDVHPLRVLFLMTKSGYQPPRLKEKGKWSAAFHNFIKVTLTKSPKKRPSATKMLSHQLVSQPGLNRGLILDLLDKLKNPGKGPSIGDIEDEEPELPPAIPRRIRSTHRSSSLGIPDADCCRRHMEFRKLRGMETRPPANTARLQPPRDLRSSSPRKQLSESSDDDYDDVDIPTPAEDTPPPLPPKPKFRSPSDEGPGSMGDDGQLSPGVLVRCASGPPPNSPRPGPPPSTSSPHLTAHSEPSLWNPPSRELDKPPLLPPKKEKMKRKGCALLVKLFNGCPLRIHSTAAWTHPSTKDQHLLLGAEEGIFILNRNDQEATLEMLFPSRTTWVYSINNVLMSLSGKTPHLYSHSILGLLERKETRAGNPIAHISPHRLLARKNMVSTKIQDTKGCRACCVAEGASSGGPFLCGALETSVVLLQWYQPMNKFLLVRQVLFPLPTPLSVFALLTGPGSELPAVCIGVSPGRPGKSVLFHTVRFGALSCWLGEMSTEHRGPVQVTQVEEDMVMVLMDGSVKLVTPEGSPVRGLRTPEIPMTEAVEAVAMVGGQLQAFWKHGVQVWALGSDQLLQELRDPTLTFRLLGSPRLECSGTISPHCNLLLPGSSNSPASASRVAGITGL
Readout label: IC50

Lab note: need IC50 for COC(=O)C1CN(c2nc(Nc3cc4c(cc3OC)CCN(C)C4)ncc2Cl)c2ccccc21 (centres unmarked) [Example 115] on HPK1 (Homo sapiens, UniProt Q92918), anyone have it?
≤ 100 nM

Item: COc1cc2c(cc1Nc1ncc(Cl)c(-n3cc(C4(C(=O)O)CC4)c4ccccc43)n1)CN(C)CC2 [Example 143]
≤ 100 nM

Item: COc1cc2c(cc1Nc1ncc(Cl)c(N3CCc4ccccc43)n1)CN(CCO)CC2 [Example 27]
≤ 100 nM

Item: CCOC(=O)Cc1cn(-c2nc(Nc3cc4c(cc3OC)CCN(C)C4)ncc2Cl)c2ccccc12 [Example 132]
≤ 100 nM

Item: COc1cc2c(cc1Nc1ncc(Cl)c(N3CCc4ccccc43)n1)CN(C)CC2 [Example 4]
≤ 100 nM

Item: COc1cc2c(cc1Nc1ncc3ccn(-c4ccccc4)c3n1)CN(C)CC2 [Example 36]
≤ 100 nM

Item: COc1cc2c(cc1Nc1ncc(Cl)c(N3CC(C(=O)O)C4(CCOCC4)C3)n1)CN(C)CC2 (centres unmarked) [Example 168]
≤ 100 nM

Item: COc1cc2c(cc1Nc1ncc(Cl)c(N3CC(C)(CC(=O)O)c4cc(F)c(F)cc43)n1)CN(C)CC2 (centres unmarked) [Example 154]
≤ 100 nM

Item: COc1cc2c(cc1Nc1ncc(Cl)c(-n3cc(C(=O)O)c4ccccc43)n1)CN(C)CC2 [Example 35]
≤ 100 nM

Item: COc1cc2c(cc1Nc1ncc(Cl)c(N3CCc4ccccc43)n1)CN(C(C)C)CC2 [Example 22]
≤ 100 nM

Item: COc1cc2c(cc1Nc1ncc(Cl)c(-n3ccc4ccccc43)n1)CN(C)CC2 [Example 2]
≤ 100 nM

Item: COc1cc2c(cc1Nc1ncc(Cl)c(N3CCOc4ccccc43)n1)CN(C)CC2 [Example 7]
≤ 100 nM

Item: COc1cc2c(cc1Nc1ncc(Cl)c(-c3cn(CC(=O)O)c4ccccc34)n1)CN(C)CC2 [Example 161]
≤ 100 nM

Item: COc1cc2c(cc1Nc1ncc3ccc(P(C)(C)=O)cc3n1)CN(C)CC2 [Example 172]
100 to 500 nM

Item: COc1cc2c(cc1Nc1ncc(Cl)c(N3CCCc4ccccc43)n1)CN(C)CC2 [Example 6]
≤ 100 nM

Item: COc1cc2c(cc1Nc1ncc(Cl)c(-n3c(C(=O)N(C)C)cc4ccccc43)n1)CN(C)CC2 [Example 28]
> 1000 nM

Item: CCc1c[nH]c2ncc(-c3ccc(C)c(P(C)(C)=O)c3)cc12 [Example 50]
≤ 100 nM

Item: COc1cc2c(cc1Nc1ncc(Cl)c(-n3cnc4ccccc43)n1)CN(C)CC2 [Example 9]
≤ 100 nM

Item: COc1cc2c(cc1Nc1ncc3ccn(-c4ccccc4C(=O)N(C)C)c3n1)CN(C)CC2 [Example 38]
100 to 500 nM

Item: COc1cc2c(cc1Nc1ncc(Cl)c(N3CC(C(=O)N(C)O)c4ccccc43)n1)CN(C)CC2 (centres unmarked) [Example 102]
≤ 100 nM

Item: CCc1c[nH]c2ncc(-c3ccc(Cl)c(P(C)(C)=O)c3)cc12 [Example 52]
≤ 100 nM

Item: COc1cc2c(cc1Nc1ncc(Cl)c(N3CC(C)(CC(=O)O)c4ccccc43)n1)CN(C)CC2 (single isomer, unassigned) [Example 147]
≤ 100 nM

Item: COc1cc2c(cc1Nc1ncc(Cl)c(-n3cc(NS(C)(=O)=O)c4ccccc43)n1)CN(C)CC2 [Example 94]
≤ 100 nM

Item: COc1cc2c(cc1Nc1ncc(Cl)c(-c3ccnc4ccccc34)n1)CN(C)CC2 [Example 49]
100 to 500 nM

Item: COc1cc2c(cc1Nc1ncc3c(n1)N(c1ccccc1P(C)(C)=O)CCO3)CN(C)CC2 [Example 47]
100 to 500 nM

Item: COc1cc2c(cc1Nc1ncc(Cl)c(-n3nc(C(=O)O)c4ccccc43)n1)CN(C)CC2 [Example 113]
≤ 100 nM

Item: COc1cc2c(cc1Nc1ncc(Cl)c(-n3cc(C(N)=O)c4ccccc43)n1)CN(C)CC2 [Example 34]
≤ 100 nM

Item: COc1cc2c(cc1Nc1ncc3c(n1)N(c1ccccc1)CCO3)CN(C)CC2 [Example 46]
100 to 500 nM

Item: COC(=O)C1CN(c2nc(Nc3cc4c(cc3OC)CCN(C)C4)ncc2C(F)F)c2ccccc21 (centres unmarked) [Example 112]
≤ 100 nM

Item: COc1cc2c(cc1Nc1ncc(Cl)c(N3CC(C)(C#N)c4ccccc43)n1)CN(C)CC2 (centres unmarked) [Example 121]
≤ 100 nM

Item: COc1cc2c(cc1Nc1ncc(Cl)c(N3CC(C(=O)NO)c4ccccc43)n1)CN(C)CC2 (centres unmarked) [Example 101]
≤ 100 nM

Item: COc1cc2c(cc1Nc1ncc(Cl)c(N3CC(CO)c4ccccc43)n1)CN(C)CC2 (centres unmarked) [Example 87]
≤ 100 nM
